Values from the supplement of paper PMC11451515

- Tested on: SEM cells
- MEASUREMENT PROTOCOL: cell viability relative to DMSO control; higher = less cytotoxic
- MEASUREMENT CONDITIONS: RPMI 5 mM glucose + 10% dialyzed FBS; 48 h; 0.0211 µM
QUANTITY MEASURED: cell viability (%)
Record the value in %, omitting the unit from your answer.

In the examples that follow, each entry is paired with its recorded cell viability.
>>> number("COC(=O)[C@@H]1CC2=CC(=O)CC[C@]2(C)[C@@]23O[C@@H]2C[C@@]2(C)[C@@H](CC[C@@]24CCC(=O)O4)[C@H]13")
101
>>> number("O=C(O)C(=O)Nc1cccc(-c2nnn[nH]2)c1")
116
>>> number("CC1(C)NC(=O)N(c2ccc([N+](=O)[O-])c(C(F)(F)F)c2)C1=O")
109

# input for lookup
Problem: So what does the record say about cell viability for CC(C)C1=N[N](C\2=C1C(=O)N\C(=N2)CC3=CC=C(OCCO)C=C3)C4=C(Cl)C=CC=C4Cl ?
Result: 109

---

- System: SEM cells
- MEASUREMENT PROTOCOL: cell viability relative to DMSO control; higher = less cytotoxic
- MEASUREMENT CONDITIONS: RPMI 5 mM glucose + 10% dialyzed FBS; 48 h; 0.0632 µM
QUANTITY MEASURED: cell viability (%)
Record the value in %, omitting the unit from your answer.

In the examples that follow, each entry is paired with its recorded cell viability.
>>> number("NC(=O)c1ncn([C@@H]2O[C@H](CO)[C@@H](O)[C@H]2O)c1N")
136
>>> number("CCCCCCCN(CC)CCCC(O)c1ccc(NS(C)(=O)=O)cc1.CCCCCCCN(CC)CCCC(O)c1ccc(NS(C)(=O)=O)cc1.O=C(O)/C=C/C(=O)O (configuration not stated)")
74.6
>>> number("CCNC(=O)c1noc(-c2cc(C(C)C)c(O)cc2O)c1-c1ccc(CN2CCOCC2)cc1")
36.1
>>> number("COc1cc([C@@H]2c3cc4c(cc3[C@@H](O[C@@H]3O[C@@H]5CO[C@@H](C)O[C@H]5[C@H](O)[C@H]3O)[C@H]3COC(=O)[C@H]23)OCO4)cc(OC)c1O")
37
>>> number("C[C@H]1CN(C[C@@H](C)N1)C2=C(F)C3=C(C(=C2F)N)C(=O)\\C(=C/N3C4CC4)C(O)=O")
109
>>> number("Cc1ccc(C(N)=O)cc1Nc1nccc(-c2cn(C(C)C)c3cnccc23)n1")
113
>>> number("CN(C)Cc1cccc(N/C(=C2\\C(=O)Nc3cc(C(=O)N(C)C)ccc32)c2ccccc2)c1")
103
>>> number("COC(=O)[C@@H]1CC2=CC(=O)CC[C@]2(C)[C@@]23O[C@@H]2C[C@@]2(C)[C@@H](CC[C@@]24CCC(=O)O4)[C@H]13")
113

Problem: So what does the record say about cell viability for O=C(c1ccc(C(=O)N2CCC(N3CCCC3)CC2)c(Nc2ccccc2)c1)N1CCC(N2CCCC2)CC1 ?
Result: 98

Problem: Another compound to look at: COc1ccc(CC2SC(=O)NC2=O)cc1C(=O)NCc1ccc(C(F)(F)F)cc1 (configuration not stated)
Result: 77.6

Problem: Another compound to look at: C=C[C@H]1CN2CCC1C[C@H]2[C@H](O)c1ccnc2ccccc12 (some centres not stated)
Result: 126

Problem: Another compound to look at: CCOC(=O)c1c(/C(C#N)=C\N)c2ccc(Cl)c(Cl)c2n1C
Result: 71.6
